ASSAY_PROCEDURE: Clinical pharmacokinetics study in healthy volunteers, IV bolus + 1-step infusion
Format: in vivo, human
ASSAY_CONDITIONS: both sexes, human, plasma, intravenous, bolus 0.3 μg/kg, infusion 0.4 μg/kg/hr for 12 hours; read-out: AOL plasma concentration Cmax
MEASUREMENT_LABEL: Cmax (ng/mL)
Numbers only, in ng/mL.

Inquiry: Look at this compound and give its reported Cmax. COc1ccc(-c2cc(=S)ss2)cc1
Reply text: 0.29
